Hi there, I'd appreciate the recorded Cell Viability (% inhibition) (A549) for every entry that follows.
Test system: A549 cells
Assay: Cell viability by MTT method in A549 cells
Assay type: cell-based
Set-up: concentration or dose not given beside the values
Conditions: 72 hours treatment
Answers are plain numbers, in %.

molecule=COc1ccc(-c2csc(NC(=O)[C@H](Cc3c[nH]cn3)NS(=O)(=O)c3ccc(Br)cc3)n2)cc1 reported_endpoint="Cell Viability (% inhibition) (A549)" assay_value=91.03
molecule=Cc1ccc(-c2csc(NC(=O)[C@H](Cc3c[nH]c4ccccc34)NS(=O)(=O)c3ccc(Br)cc3)n2)cc1 reported_endpoint="Cell Viability (% inhibition) (A549)" assay_value=61.41
molecule=COc1ccc(CCNC(=O)[C@H](Cc2c[nH]c3ccccc23)NS(=O)(=O)c2ccc(Br)cc2)cc1 reported_endpoint="Cell Viability (% inhibition) (A549)" assay_value=84.34
molecule="CCOC(=O)C(Cc1c[nH]c2ccccc12)NC(=O)[C@H](Cc1c[nH]c2ccccc12)NS(=O)(=O)c1ccc(C)cc1 (stereo partly shown)" reported_endpoint="Cell Viability (% inhibition) (A549)" assay_value=93.83
molecule="COC(=O)c1ccc(-c2csc(NC(=O)[C@H](Cc3c[nH]c4ccccc34)NS(=O)(=O)c3ccc(C)cc3)n2)cc1 [Compound 165]" reported_endpoint="Cell Viability (% inhibition) (A549)" assay_value=78.22

Record Cell Viability (% inhibition) (A549) per entry; entries follow.
1. COc1ccc(-c2csc(NC(=O)[C@H](Cc3c[nH]c4ccccc34)NS(=O)(=O)c3ccc(C)cc3)n2)cc1
2. CON(C)C(=O)[C@H](Cc1c[nH]c2ccccc12)NS(=O)(=O)c1ccc(C)cc1

Output line:
[86.53, 6.26]
